Entry source: ChEMBL document CHEMBL5579827

# experimental_protocol: Metabolic stability in dog liver microsomes assessed as intrinsic clearance at 50 uM preincubated with NADPH for 5 mins followed by compound addition and measured upto 60 mins by LC-MS/MS analysis
# Format: ADME, Canis lupus familiaris, Microsome
# test_settings: read-out: CLH

{"columns": ["compound", "microsomal CLint at 50 µM"],
 "data": [
  ["CCCCC(O)c1ccc(Br)cc1-c1nn[nH]n1 (stereo unspecified)", "< 7.4 µL/min/mg"]
]}

====

# experimental_protocol: AUC(0 to infinity) in Sprague-Dawley rat at 10 mg/kg, po measured upto 8 hrs by LC-MS/MS analysis
# Type: ADME, organism-based
# test_settings: Sprague-Dawley, in vivo
A collection of compounds and their measured AUC(0-inf)

{"columns": ["compound", "result_units", "AUC(0-inf)"],
 "data": [
  ["CCCCC(O)c1ccccc1-c1nn[nH]n1 (configuration not stated)", "ng·h/mL", 37100],
  ["CCCCC(O)c1ccccc1-c1nnn(C)n1 (configuration not stated)", "ng·h/mL", 71.5]
]}
